# percent reduction in TR-FRET probe signal per record follows
system: AEK1 (Tb927.3.2440); assay: percent reduction in TR-FRET probe signal relative to DMSO control; higher = stronger displacement of ATP-site probe (binding); conditions: 1 µM; incubation time 1 h
Value expressed in %; do not type the unit.

Some solved entries appear below for comparison.
{"CHEMICAL STRING": "Cc1cc(Nc2cc(CN3CCOCC3)c3nc(C)c(Cc4ccc(Cl)cc4F)n3n2)n[nH]1", "RESULT VALUE": 49}
{"CHEMICAL STRING": "Cc1ccc(Nc2nccc(N(C)c3ccc4c(C)n(C)nc4c3)n2)cc1S(N)(=O)=O", "RESULT VALUE": 7.95}
{"CHEMICAL STRING": "CCN(CCO)CCCOc1ccc2c(Nc3cc(CC(=O)Nc4cccc(F)c4)n[nH]3)ncnc2c1", "RESULT VALUE": -5.79}

q: Which percent reduction in TR-FRET probe signal value belongs to Cn1cc(C=C2C(=O)Nc3cccnc32)c2ccccc21 ?
a: -3.06

These measurements were taken from the supplement of paper PMC10720658.
